# credit: the supplement of paper PMC9170038

# Tested on: MS2 coat protein
# Protocol summary: apparent KD of MS2 coat protein; designed switch direction (-1 OFF switch, 1 ON switch): -1; higher = weaker reporter binding
# Test settings: input ligand: microRNA oligo, concentration not stated
Response key: Y means apparent KD of MS2 coat protein >= 50 nM; N means apparent KD of MS2 coat protein < 50 nM.

Known results for sequences:
UUAGAUUAUUGAGGAUAUGGUUAUUUUUAUUAACCAGAAGGCAAACUCAACAUGAGGAUCACCCAUGUAUAAAGGGUAUUAGUU [JR_ExcNG1_Sub097] (Eterna round: R96, puzzle: Exclusion NG 1); Y
CGAUGCUCGUGGCCACAUGAGGAUCACCCAUGUCGAGUUAGCGAGGAUAUCGGUAGCACAUAUCACGAGAAGGCGCGAACCUGA [Ex NG3 #29] (Eterna round: R96, puzzle: Exclusion NG 3); N
GGUCAGAUGGUAGGAUAUCCAUAUCGAGUGACCCUUUCAUAACAUGAGGAUCACCCAUGUCGGUGGGAGAAGGGCUGUACGGCG [salish99_ExNG02_R04_021] (Eterna round: R96, puzzle: Exclusion NG 2); N
GAAGUGCACAUGAGGAUCACCCAUGUGGGUGAGCCGUGCCUGAAGGAUAUGGCUCCCGAUGGAGACCAGAAGGUCAGUAAAUAA [Ededor] (Eterna round: R96, puzzle: Exclusion NG 3); Y
AGUUGUUGUUUCCGUUCUUACAUGAGGAUCACCCAUGUUUCUUGUCGUGCUCGCGUUGCUCGUCUGGCUGCCUGUUG [salish99_TOv1_r3_069] (Eterna round: R96, puzzle: Sensor v3, turn-off variant 1); N
UUUAUAUAUGAAGGAUAUACUUAACAUGAGGAUCACCCAUGUGGUGUUGUGAGUGAGUGAGUUUAGUAGAAGGUCAAUUCUUUU [JMF's solution 91] (Eterna round: R96, puzzle: Exclusion NG 2); Y
CACCUCGUAGCAGGAUAUUAGAGCUUCCGCAAAUGAGAAGGGCUACGAAACACUUGAGGAUCACCCAAGUACCGUGGUCCUCUA [Mutated MS2 EX1.11] (Eterna round: R96, puzzle: Exclusion NG 1); N
CCGCUCCGUGUAGGAUAUUGGCGUGCUCUGCGCCGAGAAGGACAUGAGGAUCACCCAUGUAUGUUAUUAUCACGCGUGGCGCAU [Design 78] (Eterna round: R96, puzzle: Exclusion NG 1); N

Does UUCCUCACUUCUUUGUCUCACAUGAGGAUCACCCAUGUAAUAUAGGAUAUGCAUAGUAUUUCUAUGCAGAAGGAUAUUAGUUUU [JR_ExcNG3_Sub087] (Eterna round: R96, puzzle: Exclusion NG 3) have a reported apparent KD of MS2 coat protein of at least 50 nM?
N

Reported apparent KD of MS2 coat protein reaches at least 50 nM for AGCUGUGGCCGAGGAUAUCUAAUAGUCCCAACCGAAAUAUAAUCGGACAUGAGGAUCACCCAUGUAGAGAAGGCGGUCUCAGCA [Eli eng2 - 069] (Eterna round: R96, puzzle: Exclusion NG 2) ?
Y
